Molecular target: Solute carrier organic anion transporter family member 2B1 (Homo sapiens, UniProt O94956)
Sequence (O94956 whole entry): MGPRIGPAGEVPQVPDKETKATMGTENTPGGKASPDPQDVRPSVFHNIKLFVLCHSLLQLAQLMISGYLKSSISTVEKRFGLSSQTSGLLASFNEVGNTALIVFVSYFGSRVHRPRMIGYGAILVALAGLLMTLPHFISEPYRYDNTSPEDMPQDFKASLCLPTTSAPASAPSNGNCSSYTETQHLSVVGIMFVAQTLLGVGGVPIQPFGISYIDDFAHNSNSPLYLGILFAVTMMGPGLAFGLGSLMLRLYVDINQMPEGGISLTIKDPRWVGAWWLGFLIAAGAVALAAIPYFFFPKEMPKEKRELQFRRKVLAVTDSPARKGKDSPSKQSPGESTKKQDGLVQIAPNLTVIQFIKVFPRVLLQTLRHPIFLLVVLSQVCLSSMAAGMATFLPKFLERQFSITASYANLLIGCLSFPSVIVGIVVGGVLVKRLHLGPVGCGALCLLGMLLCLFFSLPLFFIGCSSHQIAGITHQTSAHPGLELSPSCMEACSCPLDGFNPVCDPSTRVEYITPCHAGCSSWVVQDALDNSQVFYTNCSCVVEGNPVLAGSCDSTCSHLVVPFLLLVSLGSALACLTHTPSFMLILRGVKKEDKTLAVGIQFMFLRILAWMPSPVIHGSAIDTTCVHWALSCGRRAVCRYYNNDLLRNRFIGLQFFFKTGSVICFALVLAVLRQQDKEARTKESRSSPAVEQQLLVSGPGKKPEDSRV
Assay: Inhibition of human liver OATP2B1 expressed in HEK293 Flp-In cells assessed as reduction in [3H]E3S uptake at 20 uM incubated for 5 mins by scintillation counting
Settings: hek293, 5 min
PARAMETER: INH (%)
Numeric only. Scale: %

Please review the entries below; each comes with its answer.
{"columns": ["COMPOUND", "INH (%)"],
 "data": [
  ["COC(=O)C1=C(C)NC(C)=C(C(=O)OC(C)C)C1c1cccc2nonc12 (stereo not drawn)", 12],
  ["CN1CCC[C@H]1c1cccnc1", -16.5],
  ["Cc1ncc2n1-c1ccc(Cl)cc1C(c1ccccc1F)=NC2", 22.7],
  ["Cc1cccc(C)c1OCC(=O)N[C@@H](Cc1ccccc1)[C@@H](O)C[C@H](Cc1ccccc1)NC(=O)[C@H](C(C)C)N1CCCNC1=O", 86.4],
  ["O=C1Nc2ccc(Cl)cc2[C@@](C#CC2CC2)(C(F)(F)F)O1", 43.2]
]}

Q: Sample COC(=O)C1=C(C)NC(C)=C(C(=O)OCCN(C)Cc2ccccc2)C1c1cccc([N+](=O)[O-])c1 (stereo not drawn) — what was its INH?
Result: 31.8

Q: Look at this compound and give its reported INH. CCCC1O[C@@H]2C[C@H]3[C@@H]4CCC5=CC(=O)C=C[C@]5(C)[C@H]4[C@@H](O)C[C@]3(C)[C@]2(C(=O)CO)O1 (stereo partly drawn) [BUDESONIDE]
Result: 30.3

Q: Entry under review: CC[C@H](C)C(=O)O[C@H]1C[C@H](O)C=C2C=C[C@H](C)[C@H](CC[C@@H](O)C[C@@H](O)CC(=O)O)[C@H]21 . Reported INH?
Result: 36.8
